measuredTarget: HDAC6 (Homo sapiens (Human))
assaySummary: HDAC6 enzymatic assay
Assay type: biochemical
condition: read-out: Human HDAC6 IC50
Assign IC50 to each entry below.

Examples from the recorded data:
CC(=O)N(C)CC(Nc1ncc(-c2nnc(C(F)F)o2)cn1)c1ccc(F)cc1 (single isomer, unassigned) [166(+)]; 0.093 µM
FC(F)c1nnc(-c2cnc(NC3(c4ccccc4)CC3)nc2)o1 [Example 4]; 0.023 µM
Fc1ccc(C(Nc2ncc(-c3nnc(C(F)F)o3)cn2)C(F)(F)F)cc1 (stereo not drawn) [Example 15]; 0.074 µM

I would be grateful if you could provide IC50 for each of the following entries.
1. CC(Nc1ncc(-c2nnc(C(F)F)o2)cn1)c1c(F)cccc1F (single isomer, unassigned; (+)) [100(+)]
2. Fc1ccc(C(Cn2cc(C(F)(F)F)cn2)Nc2ncc(-c3nnc(C(F)F)o3)cn2)cc1 (single isomer, unassigned) [176(−)]
3. O=C(C1CC1)N(CC(Nc1ncc(-c2nnc(C(F)F)o2)cn1)c1ccc(F)cc1)CC(F)(F)F (single isomer, unassigned) [170(+)]
4. Fc1cccc(F)c1C(CC(F)(F)F)Nc1ncc(-c2nnc(C(F)F)o2)cn1 (stereo not drawn) [Example 102]

1: 0.03 µM; 2: 1.5 µM; 3: 0.16 µM; 4: 0.092 µM

I would be grateful if you could provide IC50 for each of the following entries.
1. Fc1cc(C(F)(F)F)ccc1C1(Nc2ncc(-c3nnc(C(F)F)o3)cn2)CC1 [Example 71]
2. Fc1ccc(OC(F)(F)F)cc1C1(Nc2ncc(-c3nnc(C(F)F)o3)cn2)CC1 [Example 75]
3. CS(=O)(=O)NCC(Nc1ncc(-c2nnc(C(F)F)o2)cn1)c1ccc(OC(F)F)cc1 (single isomer, unassigned) [115(−)]
4. O=C(NCC(Nc1ncc(-c2nnc(C(F)F)o2)cn1)c1ccc(F)cc1)C(F)(F)F (stereo not drawn) [Example 114]
5. CS(=O)(=O)N(CC(Nc1ncc(-c2nnc(C(F)F)o2)cn1)c1ccc(Cl)cc1)CC(F)(F)F (single isomer, unassigned) [174(−)]
6. Fc1ccc(C(COCC(F)(F)F)Nc2ncc(-c3nnc(C(F)F)o3)cn2)c(F)c1 (single isomer, unassigned) [163(−)]
7. FC(F)c1nnc(-c2cnc(NC3(c4cc(OCC(F)(F)F)ccc4Cl)CC3)nc2)o1 [Example 89]
8. O=S(=O)(NCC(Nc1ncc(-c2nnc(C(F)F)o2)cn1)c1ccc(OC(F)(F)F)cc1)C1CC1 (stereo not drawn) [158(+)]

["0.1 µM", "0.038 µM", "0.37 µM", "0.05 µM", "0.11 µM", "0.41 µM", "0.1 µM", "0.051 µM"]

----------
measuredTarget: UniProtKB Q13547
Sequence (Q13547 whole entry): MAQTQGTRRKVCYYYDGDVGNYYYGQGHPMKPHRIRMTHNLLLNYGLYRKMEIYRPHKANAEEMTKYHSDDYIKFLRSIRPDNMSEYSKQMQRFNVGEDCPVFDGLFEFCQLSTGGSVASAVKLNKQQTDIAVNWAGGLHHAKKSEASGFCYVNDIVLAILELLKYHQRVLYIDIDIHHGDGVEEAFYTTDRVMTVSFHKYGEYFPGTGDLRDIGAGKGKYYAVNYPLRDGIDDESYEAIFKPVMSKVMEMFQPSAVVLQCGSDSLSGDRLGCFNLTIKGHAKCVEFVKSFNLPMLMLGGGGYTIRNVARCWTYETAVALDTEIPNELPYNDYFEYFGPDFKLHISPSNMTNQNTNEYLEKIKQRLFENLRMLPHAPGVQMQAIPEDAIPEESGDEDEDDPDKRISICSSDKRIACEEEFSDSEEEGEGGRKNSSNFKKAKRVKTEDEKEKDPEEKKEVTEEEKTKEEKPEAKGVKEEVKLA
assaySummary: HDAC1 enzymatic assay
Assay type: biochemical
condition: read-out: Human HDAC1 IC50
pIC50: −log10 of the molar value.
measuredMetric: pIC50

Examples from the recorded data:
Fc1cccc(C2(Nc3ncc(-c4nnc(C(F)F)o4)cn3)CC2)c1 [Example 57]; < 4.00
Fc1ccc(C(COCC(F)(F)F)Nc2ncc(-c3nnc(C(F)F)o3)cn2)c(F)c1 (single isomer, unassigned) [163(−)]; < 4.52
O=S(=O)(C1CC1)N(CC(Nc1ncc(-c2nnc(C(F)F)o2)cn1)c1ccc(OC(F)(F)F)cc1)CC(F)(F)F (stereo not drawn) [160(+)]; < 4.52

Recorded pIC50 for CCS(=O)(=O)N(C)CC(Nc1ncc(-c2nnc(C(F)F)o2)cn1)c1ccc(F)cc1F (stereo not drawn) [140(+)] , please? < 4.52

----------
measuredTarget: HDAC4 (Homo sapiens (Human), UniProt P56524)
Sequence (P56524 whole entry, species assumed): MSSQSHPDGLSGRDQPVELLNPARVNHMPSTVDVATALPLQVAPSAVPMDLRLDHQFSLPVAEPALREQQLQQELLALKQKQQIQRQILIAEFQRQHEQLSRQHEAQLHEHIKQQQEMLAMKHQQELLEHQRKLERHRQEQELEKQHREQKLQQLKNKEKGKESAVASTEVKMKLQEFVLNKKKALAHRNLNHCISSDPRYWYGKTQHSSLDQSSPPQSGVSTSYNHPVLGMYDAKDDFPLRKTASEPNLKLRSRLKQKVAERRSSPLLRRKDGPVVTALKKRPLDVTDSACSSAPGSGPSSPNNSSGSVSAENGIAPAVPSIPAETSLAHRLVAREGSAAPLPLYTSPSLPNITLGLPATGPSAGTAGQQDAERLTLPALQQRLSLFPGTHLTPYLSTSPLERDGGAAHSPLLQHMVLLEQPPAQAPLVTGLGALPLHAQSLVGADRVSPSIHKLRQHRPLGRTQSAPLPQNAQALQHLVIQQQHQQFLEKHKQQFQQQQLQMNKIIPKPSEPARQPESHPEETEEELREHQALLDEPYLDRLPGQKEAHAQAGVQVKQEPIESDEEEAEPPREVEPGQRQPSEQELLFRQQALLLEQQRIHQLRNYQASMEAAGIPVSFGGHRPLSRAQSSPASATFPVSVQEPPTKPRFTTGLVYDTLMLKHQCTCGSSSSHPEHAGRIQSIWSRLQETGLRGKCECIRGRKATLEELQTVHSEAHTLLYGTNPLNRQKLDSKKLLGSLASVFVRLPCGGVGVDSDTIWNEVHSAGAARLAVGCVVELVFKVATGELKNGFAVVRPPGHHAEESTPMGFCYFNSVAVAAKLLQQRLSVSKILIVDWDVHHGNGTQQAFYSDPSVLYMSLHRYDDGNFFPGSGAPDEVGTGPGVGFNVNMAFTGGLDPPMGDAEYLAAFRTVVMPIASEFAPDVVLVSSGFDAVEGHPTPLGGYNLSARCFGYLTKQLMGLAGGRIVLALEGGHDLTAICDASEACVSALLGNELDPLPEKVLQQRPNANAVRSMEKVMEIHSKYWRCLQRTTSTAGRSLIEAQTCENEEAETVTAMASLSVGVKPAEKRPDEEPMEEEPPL
assaySummary: HDAC4 enzymatic assay
Assay type: biochemical
condition: selectivity profile; read-out: HDAC Enzyme IC50, HDAC 4
pIC50: −log10 of the molar value.
measuredMetric: pIC50

CS(=O)(=O)CC(Nc1ncc(-c2nnc(C(F)F)o2)cn1)c1ccc(F)cc1 (single isomer, unassigned) [161(+)]; < 4.52
O=S(=O)(NCC(Nc1ncc(-c2nnc(C(F)F)o2)cn1)c1ccc(F)cc1)C1CC1 (stereo not shown); < 4.52
CS(=O)(=O)N(CC(Nc1ncc(-c2nnc(C(F)F)o2)cn1)c1ccc(F)cc1)CC(F)(F)F (single isomer, unassigned) [118(+)]; < 4.52
CS(=O)(=O)NCC(Nc1ncc(-c2nnc(C(F)F)o2)cn1)c1ccc(OC(F)F)cc1 (single isomer, unassigned) [115(+)]; 4.97
CS(=O)(=O)NCC(Nc1ncc(-c2nnc(C(F)F)o2)cn1)c1ccc(F)cc1 (single isomer, unassigned) [38(+)]; < 4.52
Fc1ccc(C(CC(F)(F)F)Nc2ncc(-c3nnc(C(F)F)o3)cn2)cc1 (stereo not shown); < 4.52
CC(C)(Nc1ncc(-c2nnc(C(F)F)o2)cn1)c1ccc(F)cc1; < 4.52
O=C(NCC(Nc1ncc(-c2nnc(C(F)F)o2)cn1)c1ccc(F)cc1)C1CC1 (single isomer, unassigned) [168(+)]; 4.86

I would be grateful if you could provide pIC50 for each of the following entries.
1. FC(F)c1nnc(-c2cnc(NC3(c4ccccc4)CC3)nc2)o1
2. CS(=O)(=O)NCC(Nc1ncc(-c2nnc(C(F)F)o2)cn1)c1ccc(OC(F)(F)F)cc1 (single isomer, unassigned) [122(+)]

1: < 4.52; 2: 5.08

----------
Please consider the recorded IC50 for HDAC5 (Homo sapiens (Human), UniProt Q9UQL6) in what follows.

CS(=O)(=O)NCC(Nc1ncc(-c2nnc(C(F)F)o2)cn1)c1ccc(F)cc1 (single isomer, unassigned) [38(+)]; > 30 µM
FC(F)c1nnc(-c2cnc(NC3(c4ccccc4)CC3)nc2)o1; > 30 µM
CS(=O)(=O)NCC(Nc1ncc(-c2nnc(C(F)F)o2)cn1)c1ccc(OC(F)F)cc1 (single isomer, unassigned) [115(+)]; > 30 µM
CS(=O)(=O)N(CC(Nc1ncc(-c2nnc(C(F)F)o2)cn1)c1ccc(F)cc1)CC(F)(F)F (single isomer, unassigned) [118(+)]; > 30 µM
O=S(=O)(NCC(Nc1ncc(-c2nnc(C(F)F)o2)cn1)c1ccc(F)cc1)C1CC1 (stereo not shown); > 30 µM
O=C(NCC(Nc1ncc(-c2nnc(C(F)F)o2)cn1)c1ccc(F)cc1)C1CC1 (single isomer, unassigned) [168(+)]; > 30 µM

Proceed to the following item.
For HDAC5 (Homo sapiens (Human), UniProt Q9UQL6), provide IC50 of CS(=O)(=O)CC(Nc1ncc(-c2nnc(C(F)F)o2)cn1)c1ccc(F)cc1 (single isomer, unassigned) [161(+)] please. > 30 µM

----------
measuredTarget: HDAC6 (Homo sapiens (Human))
assaySummary: HDAC6 enzymatic assay
Type: biochemical
condition: read-out: Human HDAC6 IC50
pIC50: −log10 of the molar value.
Values of pIC50 greater than or equal to 7 map to Condition met; values below map to Condition not met.

Could you tell me if the measured pIC50 of COc1ccc(C2(Nc3ncc(-c4nnc(C(F)(F)F)o4)cn3)CC2)cc1 reaches 7 or more? Condition not met

Same question, CCCS(=O)(=O)NCC(Nc1ncc(-c2nnc(C(F)F)o2)cn1)c1ccc(F)cc1 (stereo not shown) this time Condition met

Same question, FC(F)c1nnc(-c2cnc(NC3(c4ccccc4C(F)(F)F)CC3)nc2)o1 this time Condition met

----------
measuredTarget: HDAC6 (Homo sapiens (Human), UniProt Q9UBN7)
Sequence (Q9UBN7 whole entry): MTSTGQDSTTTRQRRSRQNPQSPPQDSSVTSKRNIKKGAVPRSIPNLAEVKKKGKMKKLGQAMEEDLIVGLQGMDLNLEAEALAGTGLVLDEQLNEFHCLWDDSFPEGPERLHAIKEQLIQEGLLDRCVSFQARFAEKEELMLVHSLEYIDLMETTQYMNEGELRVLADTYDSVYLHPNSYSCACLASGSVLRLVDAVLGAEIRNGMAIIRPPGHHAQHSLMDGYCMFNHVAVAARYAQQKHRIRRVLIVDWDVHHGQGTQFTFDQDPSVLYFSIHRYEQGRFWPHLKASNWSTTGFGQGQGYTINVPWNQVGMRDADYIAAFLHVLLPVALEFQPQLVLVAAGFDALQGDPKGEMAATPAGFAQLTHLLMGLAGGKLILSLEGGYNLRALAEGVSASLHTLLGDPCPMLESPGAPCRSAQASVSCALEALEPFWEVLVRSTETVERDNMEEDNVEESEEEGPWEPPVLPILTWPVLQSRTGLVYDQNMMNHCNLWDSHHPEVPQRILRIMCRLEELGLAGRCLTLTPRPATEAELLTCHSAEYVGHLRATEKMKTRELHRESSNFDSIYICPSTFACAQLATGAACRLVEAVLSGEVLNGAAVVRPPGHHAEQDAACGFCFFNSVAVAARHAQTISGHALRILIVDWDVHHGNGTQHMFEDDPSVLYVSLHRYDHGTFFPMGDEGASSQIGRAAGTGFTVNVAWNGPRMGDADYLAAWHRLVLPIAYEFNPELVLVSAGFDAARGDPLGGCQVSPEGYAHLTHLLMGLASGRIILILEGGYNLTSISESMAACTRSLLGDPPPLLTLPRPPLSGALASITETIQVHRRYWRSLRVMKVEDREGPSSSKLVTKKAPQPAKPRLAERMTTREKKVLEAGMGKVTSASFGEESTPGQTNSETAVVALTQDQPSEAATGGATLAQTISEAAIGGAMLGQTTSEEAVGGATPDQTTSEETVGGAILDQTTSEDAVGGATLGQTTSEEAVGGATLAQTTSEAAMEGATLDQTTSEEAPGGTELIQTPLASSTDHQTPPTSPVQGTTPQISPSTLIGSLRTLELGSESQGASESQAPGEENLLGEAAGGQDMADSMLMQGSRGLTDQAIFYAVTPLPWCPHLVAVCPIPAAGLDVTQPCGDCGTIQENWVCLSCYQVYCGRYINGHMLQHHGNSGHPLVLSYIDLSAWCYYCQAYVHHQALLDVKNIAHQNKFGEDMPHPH
assaySummary: HDAC6 enzymatic assay
Format: biochemical
condition: read-out: Human HDAC6 IC50
Assign log10 IC50 to each entry below.
Heads up: the numbers are on a log10 scale; they represent IC50 in nM.

Examples from the recorded data:
Fc1ccc(C(COc2ccccc2)Nc2ncc(-c3nnc(C(F)F)o3)cn2)cc1 (centres unmarked) [Example 19]; 1.67
CS(=O)(=O)Nc1cccc(CC(Nc2ncc(-c3nnc(C(F)F)o3)cn2)c2ccc(F)cc2)c1 (centres unmarked) [Example 132]; 1.92
CCS(=O)(=O)NCC(Nc1ncc(-c2nnc(C(F)F)o2)cn1)c1ccc(F)cc1F (single isomer, unassigned) [139(+)]; 1.52
CCS(=O)(=O)NCC(Nc1ncc(-c2nnc(C(F)F)o2)cn1)c1ccc(F)cc1 (centres unmarked) [Example 108]; 1.43
Cc1cccc(CNc2ncc(-c3nnc(C(F)(F)F)o3)cn2)n1 [Example 3]; 2.36

I would be grateful if you could provide log10 IC50 for each of the following entries.
1. FC(F)c1nnc(-c2cnc(NC3(c4cccc(C(F)(F)F)c4Cl)CC3)nc2)o1 [Example 85]
2. CC(C)CS(=O)(=O)NCC(Nc1ncc(-c2nnc(C(F)F)o2)cn1)c1ccc(F)cc1 (centres unmarked) [Example 112]
3. FC(F)c1nnc(-c2cnc(NC3(c4ccccc4OC(F)(F)F)CC3)nc2)o1 [Example 55]
4. CC(C)C(Nc1ncc(-c2nnc(C(F)F)o2)cn1)c1ccc(F)cc1 (centres unmarked) [Example 24]
5. Fc1ccccc1C1(Nc2ncc(-c3nnc(C(F)F)o3)cn2)CC1 [Example 56]

1. 1.79
2. 1.51
3. 1.30
4. 1.98
5. 0.78

I would be grateful if you could provide log10 IC50 for each of the following entries.
1. CCS(=O)(=O)NCC(Nc1ncc(-c2nnc(C(F)F)o2)cn1)c1ccc(OC(F)(F)F)cc1 (stereo not drawn) [155(+)]
2. CCS(=O)(=O)N(C)CC(Nc1ncc(-c2nnc(C(F)F)o2)cn1)c1ccc(OC(F)(F)F)cc1 (stereo not drawn) [156(+)]
3. FC(F)c1nnc(-c2cnc(NC(c3ccccc3)c3ccccc3)nc2)o1 [Example 7]
4. CC(C)(Nc1ncc(-c2nnc(C(F)F)o2)cn1)c1ccc(F)cc1F [Example 97]
5. CN(CC(Nc1ncc(-c2nnc(C(F)F)o2)cn1)c1ccc(F)cc1)S(C)(=O)=O (centres unmarked) [Example 113]
6. CCS(=O)(=O)N(CC(Nc1ncc(-c2nnc(C(F)F)o2)cn1)c1ccc(F)cc1)CC(F)(F)F (single isomer, unassigned) [164(−)]

1: 1.70; 2: 1.88; 3: 3.23; 4: 1.53; 5: 1.32; 6: 2.36
